# test.summary: COS7 lysate on small-molecule microarray, probe aHis, 635 nm (AID 1123);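 also: z-score combines 667nm fluorescence intensity with signal-to-noise per printed compound spot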
# recorded.conditions: COS7 cell lysate, fluorescence, higher = more signal
Let's look at some molecules and their measured composite z-score.
Output spec: single numeric token, no unit.

O=C(CS)NCCCCCNC(=O)[C@@H]1C[C@@H]2C(=O)N3CCC[C@H]3C(=O)N2[C@@H]1c1cccc(OCCO)c1 :: 2.18
COCCOC(=O)N1C(=O)[C@@]2(c3cc(C#Cc4ccc(OC)cc4)ccc31)[C@H](c1ccc(O)cc1)N1[C@H](c3ccccc3)[C@H](c3ccccc3)OC(=O)[C@H]1[C@@H]2C(=O)N1CCCCCCC1 :: 2.11

Now consider a different molecule.
Using the record for COC(=O)c1ccc([C@H](NC(=O)c2ccco2)[C@]2(C)C[C@H]2C2CCCCC2)cc1 , report its composite z-score.
1.43

* * *

# assayed.system: Luciferin 4-monooxygenase (Photinus pyralis)
# test.summary: firefly luciferase enzyme inhibitors, primary screen, biochemical, luminescence, purified enzyme, 2006 set (AID 1141);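 also: cell-free assay with purified firefly luciferase at 100 ng per well in PBS; test concentration not given here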
# recorded.conditions: SteadyGlo luminescence, 30 min, higher = more signal, called active from +8 up or from −8 down
measurement.name: z-score
Output spec: single numeric token, no unit.

CC1=C[C@@]2(CO)C(=O)[C@]3(CO3)[C@@H]1[C@H]1[C@]2(C)C=C(CO)C(=O)[C@]12CO2 :: 0.538

Using the record for CCOC(=O)C[C@H]1[C@H](OC(=O)Cc2ccc3c(c2)OCO3)[C@@H](NC(=O)Cc2ccc(OC)cc2)c2cc(OCCCO)ccc2N1C(=O)c1ccc2ccccc2n1 , report its z-score.
-1.7

Using the record for CCCCO[C@H]1C[C@H]2C(I)=C[C@@H]1C(=O)[C@]21CO1 , report its z-score.
0.274

Using the record for COc1ccc(-c2cc3c(c(CCc4ccccc4)n2)[Si](C(C)C)(C(C)C)OC3)cn1 , report its z-score.
1.17

Using the record for COCCOC(=O)N1C(=O)[C@@]2(c3cc(C#CC4=CCCCC4)ccc31)[C@H](C(N)=O)[C@H]1C(=O)O[C@H](c3ccccc3)[C@H](c3ccccc3)N1[C@@H]2c1ccccc1OCCO , report its z-score.
-0.591

Using the record for O=C1O[C@H](c2ccccc2)[C@H](c2ccccc2)N2[C@H]1[C@@H](C(=O)Nc1nc3ccccc3s1)[C@]1(C(=O)Nc3ccc(C#CCCO)cc31)[C@H]2c1ccc(O)cc1 , report its z-score.
0.198

Using the record for CC(C)C[C@@H]1NC(=O)[C@@H]2C[C@H](C(=O)NCCCCN(C)C)[C@H](c3cccc(OCCO)c3)N2C1=O , report its z-score.
0.857

Using the record for CCOC(=O)c1ccc(NC(=O)O[C@H]2[C@H](OC(=O)Nc3ccc4c(c3)OCO4)[C@@H](OC(=O)Nc3ccc4c(c3)OCO4)[C@@H](OC)O[C@@H]2CO)cc1 , report its z-score.
-7.83

Using the record for O=C1O[C@@H](c2ccccc2)[C@@H](c2ccccc2)N2[C@@H](c3ccc(O)cc3)[C@]3(C(=O)Nc4ccc(C#CC5(O)CCCCCC5)cc43)[C@@H](C(=O)NC[C@H](O)c3ccccc3)[C@H]12 , report its z-score.
0.27

Using the record for COC(=O)[C@@]1(Cc2ccc(OC)cc2)[C@H]2c3cc(C(=O)N4CCCC4)n(Cc4c(-c5ccccc5)noc4C)c3C[C@H]2CN1C(=O)c1ccccc1 , report its z-score.
2.05

* * *

Let's look at some molecules and their measured z-score.
# test.summary: CREB reporter modulators without forskolin, primary screen, cell-based, PC12, CRE-LacZ reporter, unstimulated (AID 1145)
# recorded.conditions: no forskolin, luminescence, 4.5 h, higher = more signal, called active from +8 up or from −8 down
The source made the active and inactive calls.

The following molecules have reported results that may help.
CCOC(=O)C1CCCCN1 (centres undefined) :: -0.788 (inactive)
C#CCN([C@@H](Cc1ccc(O)cc1)C(=O)OC)[C@@H](/C=C/C1CC1)[C@H](O)Cc1ccccc1 :: 16.1 (active)
COC(=O)Cn1c(C(=O)N(C)C)cc2c1C[C@H]1CN(C(=O)c3ccccc3)[C@@](Cc3ccc(F)cc3)(C(=O)OC)[C@@H]21 :: 0.207 (inactive)

Now consider a different molecule.
Using the record for CCOC(=O)C[C@H]1[C@H](OC(=O)c2cc3ccccc3oc2=O)[C@@H](NC(=O)c2ccc(-c3ccccc3)cc2)c2cc(OCCCO)ccc2N1C(=O)c1ccccc1 , report its z-score.
5.66 (inactive)

* * *

# assayed.system: Albumin (Bos taurus) (UniProt P02769)
# Sequence (P02769 whole entry, looked up): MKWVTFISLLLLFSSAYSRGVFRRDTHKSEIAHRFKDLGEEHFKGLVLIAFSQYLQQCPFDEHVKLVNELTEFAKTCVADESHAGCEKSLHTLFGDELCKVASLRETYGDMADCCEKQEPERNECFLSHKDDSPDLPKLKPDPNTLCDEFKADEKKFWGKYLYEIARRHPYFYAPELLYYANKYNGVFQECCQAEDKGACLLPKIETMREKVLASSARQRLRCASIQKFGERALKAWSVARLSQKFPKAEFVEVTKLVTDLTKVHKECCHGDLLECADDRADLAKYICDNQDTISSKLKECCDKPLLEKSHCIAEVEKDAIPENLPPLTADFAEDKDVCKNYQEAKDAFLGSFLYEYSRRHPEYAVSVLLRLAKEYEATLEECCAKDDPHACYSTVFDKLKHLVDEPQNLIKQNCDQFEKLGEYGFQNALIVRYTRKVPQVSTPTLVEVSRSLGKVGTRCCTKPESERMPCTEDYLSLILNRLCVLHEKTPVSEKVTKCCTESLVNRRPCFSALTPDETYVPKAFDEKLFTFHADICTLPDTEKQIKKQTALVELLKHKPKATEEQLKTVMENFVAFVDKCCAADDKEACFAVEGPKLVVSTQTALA
# test.summary: bovine serum albumin binders on microarray, profiling panel, artefact control for SMM control protein annotation, biochemical, small-molecule microarray, Alexa647 label, 635/667 nm fluorescence (AID 1118);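 also: score merges 667 nm emission intensity and signal-to-noise per printed compound spot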
# recorded.conditions: BSA-A647 binding, fluorescence 635 nm, higher = more signal
Let's look at some compounds and their measured composite z-score.
Output spec: single numeric token, no unit.

The following compounds have reported results that may help.
COC(=O)[C@@]1(Cc2ccc(F)cc2)[C@H]2c3cc(C(=O)N4CCCC4)n(CCN4CNCC4=O)c3C[C@H]2CN1C(=O)c1ccccc1 :: 0.975
CO[C@H]1O[C@H](CO)[C@@H](OC(=O)Nc2ccc3c(c2)OCO3)[C@H](OC(=O)c2cc3ccccc3[nH]2)[C@H]1OC(=O)c1cc2ccccc2[nH]1 :: 0.429
CCCCCCc1nc(C2CC2)cc2c1[Si](C(C)C)(C(C)C)OC2 :: -0.858

Now consider a different compound.
Using the record for CC(CO)N1C(=O)[C@@H]2[C@H]3C(=O)OCC=C[C@H]3OC23C=CCN(Cc2ccccc2)C(=O)[C@@H]13 (some centres undefined) , report its composite z-score.
0.407

* * *

Let's look at some molecules and their measured composite z-score.
# test.summary: binders from COS7 lysate, DM2A8 probe, primary screen, torsin A project, cell lysate, small-molecule microarray, fluorescence 635/667 (AID 1065)
# recorded.conditions: higher = more signal, COS7 lysate expressing mutant human TOR1A
Output spec: single numeric token, no unit.

The following molecules have reported results that may help.
C=CCN1C(=O)[C@@]2(CCS(=O)(=O)c3ccccc3)N=C(c3ccc(OCCCO)cc3)O[C@H]2c2ccccc21 :: 0.42
CC(CO)N1C(=O)[C@@H]2[C@H]3C(=O)OCC=C[C@H]3OC23C=CCN(Cc2ccccc2)C(=O)[C@@H]13 (stereo not given in full) :: -0.31
CC=CC(O)C1C=CC2C(=O)N(c3ccccc3)C(=O)C2N1Nc1ccccc1F (stereo not given) :: 0.0233

Using the record for CN(C)CCCCNC(=O)[C@@H]1C[C@@H]2C(=O)N[C@@H](Cc3ccccc3)C(=O)N2[C@@H]1c1cccc(OCCO)c1 , report its composite z-score.
0.971

Using the record for CC1CC/C=C\[C@H]2OC34C=CCN(c5ccc(Cl)cc5)C(=O)[C@H]3N(CCCCCO)C(=O)[C@]4(C)C2C(=O)O1 (stereo not given in full) , report its composite z-score.
-0.673

Using the record for COc1ccc([Si](C)(C)[C@H]2[C@H](CC(=O)N(CCO)Cc3ccccc3)O[C@@]3(C(=O)N(Cc4cccc(N5CCOC5=O)c4)c4ccccc43)[C@@H]2C)cc1 , report its composite z-score.
0.635

* * *

# test.summary: yeast growth modulation, basal conditions, primary screen, YJM789 clinical isolate, OD600, 24 h (AID 1089);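 also: growth of clinical yeast isolate S. cerevisiae YJM 789 seeded 1000 cells per well; test concentration not given here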
# recorded.conditions: S. cerevisiae YJM789 growth, higher = more signal, called active from +8 up or from −8 down
In this scheme, each record receives a class according to its z-score; the ranges are low bin (below -0.07), mid bin (-0.07 to below 0.3), high bin (0.3 or more)

Completed entries (count: 3):
O=C1O[C@@H](c2ccccc2)[C@@H](c2ccccc2)N2[C@@H](c3ccc(O)cc3)[C@]3(C(=O)Nc4ccc(C#CC5=CCCCC5)cc43)[C@@H](C(=O)NC[C@H](O)c3ccccc3)[C@H]12 :: high bin
CCOC(=O)C1=CC[C@@H](c2ccccc2C(F)(F)F)N(S(=O)(=O)c2ccc(C)cc2)[C@H]1c1ccc(C#N)cc1 :: low bin
CCCNC(=O)[C@@H]1c2ccccc2C(=O)N(C(C)C)[C@H]1c1ccc(CO)cc1 :: high bin

# bin label for CCOC(=O)C[C@H]1[C@H](OC(=O)c2cc3ccccc3oc2=O)[C@@H](NC(=O)Cc2ccc(OC)cc2)c2cc(OCCCO)ccc2N1C(=O)c1ccc2ccccc2n1
low bin

# bin label for O=C1O[C@H](c2ccccc2)[C@H](c2ccccc2)N2[C@H]1[C@@H](C(=O)O)[C@]1(C(=O)Nc3ccc(C#CC4=CCCCC4)cc31)[C@H]2c1ccc(O)cc1
low bin

# bin label for COc1ccc(C(O)C2C=CC3C(=O)N(c4ccccc4)C(=O)C3N2Nc2ccc([N+](=O)[O-])cc2)cc1 (centres undefined)
mid bin

* * *

# assayed.system: Albumin (Bos taurus) (UniProt P02769)
# test.summary: bovine serum albumin binders on microarray, profiling panel, artefact control for SMM control protein annotation, biochemical, small-molecule microarray, Alexa647 label, 635/667 nm fluorescence (AID 1118);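 also: score merges 667 nm emission intensity and signal-to-noise per printed compound spot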
# recorded.conditions: BSA-A647 binding, fluorescence 635 nm, higher = more signal
Let's look at some molecules and their measured composite z-score.
Output spec: single numeric token, no unit.

COCC1=C2[C@@H](CCc3ccccc3)OB(O)C[C@@H]2[C@@H]2C(=O)C=CC(=O)[C@@H]2C1 :: 0.739
CCOc1cc(C(O)C2C=CC3C(=O)N(C)C(=O)C3N2Nc2ccccc2)ccc1O (configuration not stated) :: 1.04
C=CCC(OC(C)=O)[C@@H]1[C@@H](N(Cc2cc3ccccc3o2)C(=O)c2ccc(-c3ccccc3)cc2)c2cc(OCCCO)ccc2N1C(=O)c1ccc2ccccc2c1 (some centres not stated) :: 0.0005

Now consider a different molecule.
Using the record for C=CCC(OC(C)=O)[C@@H]1[C@@H](N(Cc2ccc(-c3cccc(C(F)(F)F)c3)o2)C(=O)c2ccc(-c3ccccc3)cc2)c2cc(OCCCO)ccc2N1C(=O)c1ccc2ccccc2n1 (some centres not stated) , report its composite z-score.
-0.267
